Just for reference, paper PMC7305236 is where these values come from.

Target: CXCR1 (Homo sapiens, UniProt P25024)
Construct: expressed in transfected cells
Sequence (P25024 1-350): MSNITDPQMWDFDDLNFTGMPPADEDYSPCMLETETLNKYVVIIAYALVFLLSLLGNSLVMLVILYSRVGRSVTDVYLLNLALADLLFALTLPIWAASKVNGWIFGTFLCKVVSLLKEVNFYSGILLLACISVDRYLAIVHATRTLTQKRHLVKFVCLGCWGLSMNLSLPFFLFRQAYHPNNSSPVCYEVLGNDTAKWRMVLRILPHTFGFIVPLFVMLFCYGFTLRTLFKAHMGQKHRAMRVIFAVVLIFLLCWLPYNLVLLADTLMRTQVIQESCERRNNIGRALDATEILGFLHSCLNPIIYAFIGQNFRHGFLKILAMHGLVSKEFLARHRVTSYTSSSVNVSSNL
Assay: Figure S2a opioid peptide screen on chemokine receptors
Assay type: cell-based
Design: dose or concentration left out as unconfirmed
Conditions: replicate 3, read-out: CXCR1 activity, ctrl+ = 100
Starred links: 1 amine or outer side, 2 acyl side, 3 side chain; linkers in the order of their positions; H or OH if unused. Non-standard residues stand in square brackets, D forms with d. Residues, ends and D or L forms follow the SMILES beside them. X1 = N[C@@H](Cc1ccccc1)CN(CC(=O)[*:2])[*:1]
reported property: activation

Your task in this section: give activation for each listed record.
1. C[C@H](NC(=O)CNC(=O)[C@@H](NC(=O)[C@H](Cc1ccccc1)NC(=O)CNC(=O)CNC(=O)[C@@H](N)Cc1ccccc1)[C@@H](C)O)C(=O)N[C@@H](CCCNC(=N)N)C(=O)N[C@@H](CCCCN)C(=O)N[C@@H](CO)C(=O)N[C@@H](C)C(=O)N[C@@H](CCCNC(=N)N)C(=O)N[C@@H](CCCCN)C(N)=O [Nociceptin 1-13]
2. CC[C@H](C)[C@H](NC(=O)[C@H](CCCNC(=N)N)NC(=O)[C@H](CCCNC(=N)N)NC(=O)[C@H](CC(C)C)NC(=O)[C@H](Cc1ccccc1)NC(=O)CNC(=O)CNC(=O)[C@@H](N)Cc1ccc(O)cc1)C(=O)N[C@@H](CCCNC(=N)N)C(=O)N1CCC[C@H]1C(=O)N[C@@H](CCCCN)C(=O)N[C@@H](CC(C)C)C(=O)N[C@@H](CCCCN)C(=O)N[C@@H](Cc1c[nH]c2ccccc12)C(=O)N[C@@H](CC(=O)O)C(=O)N[C@@H](CC(N)=O)C(=O)N[C@@H](CCC(N)=O)C(=O)O [Dynorphin A]
3. CSCC[C@H](NC(=O)[C@H](Cc1ccccc1)NC(=O)CNC(=O)CNC(=O)[C@@H](N)Cc1ccc(O)cc1)C(=O)N[C@@H](CCCNC(=N)N)C(=O)N[C@@H](CCCNC(=N)N)C(=O)N[C@H](C(N)=O)C(C)C [Adrenorphin]

["-0.725%", "0.227%", "-0.427%"]

Your task in this section: give activation for each listed record.
1. C[C@H](NC(=O)CNC(=O)[C@@H](NC(=O)[C@H](Cc1ccccc1)NC(=O)CNC(=O)CNC[C@@H](N)Cc1ccccc1)[C@@H](C)O)C(=O)N[C@@H](CCCNC(=N)N)C(=O)N[C@@H](CCCCN)C(=O)N[C@@H](CO)C(=O)N[C@@H](C)C(=O)N[C@@H](CCCNC(=N)N)C(=O)N[C@@H](CCCCN)C(N)=O [FG Nociceptin 1-13] (H-[X1]GFTGARKSARK-NH2)
2. CC(C)C[C@H](NC(=O)[C@H](Cc1ccccc1)NC(=O)CNC(=O)CNC(=O)[C@@H](N)Cc1ccc(O)cc1)C(=O)N[C@@H](CCCN=C(N)N)C(=O)N[C@@H](CCCN=C(N)N)C(=O)N[C@@H](CCC(N)=O)C(=O)N[C@@H](Cc1ccccc1)C(=O)N[C@@H](CCCCN)C(=O)N[C@H](C(=O)N[C@H](C(=O)N[C@H](C(=O)O)[C@@H](C)O)C(C)C)C(C)C [Dynorphin B]

1: 1.07%; 2: 0.71%
